biological target: NMDAR (1A/2B) (Homo sapiens, UniProt Q05586+Q13224); experiment: Safety47 Ion Channel NMDAR (1A/2B); details: Opener, read-out: RC50 (EC50)
Sequence (Q13224 27-1484, other chains not shown): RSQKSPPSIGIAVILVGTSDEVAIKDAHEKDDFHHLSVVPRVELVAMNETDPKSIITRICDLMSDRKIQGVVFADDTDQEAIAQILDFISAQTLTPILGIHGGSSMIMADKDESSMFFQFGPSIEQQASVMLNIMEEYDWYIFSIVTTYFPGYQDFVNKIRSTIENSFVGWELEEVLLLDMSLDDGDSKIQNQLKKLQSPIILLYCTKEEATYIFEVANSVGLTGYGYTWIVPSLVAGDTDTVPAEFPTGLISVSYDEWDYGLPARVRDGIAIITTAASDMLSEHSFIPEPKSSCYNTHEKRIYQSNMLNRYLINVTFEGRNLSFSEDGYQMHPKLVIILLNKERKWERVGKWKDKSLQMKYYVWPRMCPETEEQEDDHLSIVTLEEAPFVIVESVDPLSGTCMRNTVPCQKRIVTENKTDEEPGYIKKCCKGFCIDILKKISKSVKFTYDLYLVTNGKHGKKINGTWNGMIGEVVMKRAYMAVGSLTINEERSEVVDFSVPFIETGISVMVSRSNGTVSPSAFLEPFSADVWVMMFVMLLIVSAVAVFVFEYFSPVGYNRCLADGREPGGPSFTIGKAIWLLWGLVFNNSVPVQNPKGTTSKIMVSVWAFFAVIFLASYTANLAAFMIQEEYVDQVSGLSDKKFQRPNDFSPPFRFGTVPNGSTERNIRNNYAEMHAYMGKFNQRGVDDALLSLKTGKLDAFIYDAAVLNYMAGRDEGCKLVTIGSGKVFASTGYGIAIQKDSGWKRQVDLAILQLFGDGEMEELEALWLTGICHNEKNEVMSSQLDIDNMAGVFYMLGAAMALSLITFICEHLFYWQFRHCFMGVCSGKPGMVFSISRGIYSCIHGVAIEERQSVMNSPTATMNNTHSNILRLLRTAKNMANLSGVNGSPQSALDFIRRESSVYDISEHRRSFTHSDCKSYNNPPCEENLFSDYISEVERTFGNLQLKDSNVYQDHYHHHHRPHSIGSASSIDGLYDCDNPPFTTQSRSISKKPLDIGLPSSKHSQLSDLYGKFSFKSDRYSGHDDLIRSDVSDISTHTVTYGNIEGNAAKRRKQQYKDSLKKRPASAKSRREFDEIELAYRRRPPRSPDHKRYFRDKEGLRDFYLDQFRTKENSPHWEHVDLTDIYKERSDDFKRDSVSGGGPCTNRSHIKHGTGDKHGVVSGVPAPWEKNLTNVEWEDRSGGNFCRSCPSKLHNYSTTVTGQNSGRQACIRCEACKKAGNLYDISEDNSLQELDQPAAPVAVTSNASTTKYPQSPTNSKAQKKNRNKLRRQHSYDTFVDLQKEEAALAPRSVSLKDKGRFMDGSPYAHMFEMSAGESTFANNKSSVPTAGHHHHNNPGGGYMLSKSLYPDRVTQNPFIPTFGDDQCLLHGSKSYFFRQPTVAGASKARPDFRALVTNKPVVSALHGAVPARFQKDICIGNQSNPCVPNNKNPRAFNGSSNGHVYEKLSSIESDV
pEC50: −log10 of the molar value.
Each item that follows carries a reported pEC50.
VALUE_KIND: pEC50

INSERT INTO results (compound, reported) VALUES
  ('Cl.Fc1cc(Nc2nc(-c3ccncc3)nc3ncccc23)cc2cc[nH]c12 [BC18813]', '< 5.00'),
  ('Cl.c1ccc2c(Nc3ccc4[nH]ccc4c3)nc(-c3ccncc3)nc2c1 [BC18630]', '< 5.00');

====

Reported IC50 values for the following molecules.
target: HTR1A (Homo sapiens, UniProt P08908); assay: Safety47 cAMP HTR1A; settings: Antagonist, read-out: RC50 (IC50)
Sequence (P08908 whole entry): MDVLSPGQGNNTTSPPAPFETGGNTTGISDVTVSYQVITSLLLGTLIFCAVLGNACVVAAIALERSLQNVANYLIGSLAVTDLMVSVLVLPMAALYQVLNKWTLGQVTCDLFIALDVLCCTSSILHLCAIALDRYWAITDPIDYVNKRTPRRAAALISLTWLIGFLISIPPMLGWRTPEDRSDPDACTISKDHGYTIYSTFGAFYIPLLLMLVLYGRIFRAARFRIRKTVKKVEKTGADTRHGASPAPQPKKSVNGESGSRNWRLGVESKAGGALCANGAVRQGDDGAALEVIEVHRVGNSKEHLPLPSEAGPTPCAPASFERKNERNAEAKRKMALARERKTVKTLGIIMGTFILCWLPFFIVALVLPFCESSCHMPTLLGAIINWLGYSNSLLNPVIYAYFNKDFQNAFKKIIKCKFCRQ
VALUE_KIND: IC50

INSERT INTO measurements (chemical_smiles, assay_system, value_kind, reported) VALUES
  ('Cl.Fc1cc(Nc2nc(-c3ccncc3)nc3ncccc23)cc2cc[nH]c12', 'HTR1A (Homo sapiens, UniProt P08908)', 'IC50', '> 10 µM'),
  ('Cl.c1ccc2c(Nc3ccc4[nH]ccc4c3)nc(-c3ccncc3)nc2c1', 'HTR1A (Homo sapiens, UniProt P08908)', 'IC50', '> 10 µM');

====

molecular target: CNR2 (Homo sapiens); test: Safety47 cAMP CNR2; settings: Agonist, read-out: RC50 (EC50)
Sequence (P34972 whole entry): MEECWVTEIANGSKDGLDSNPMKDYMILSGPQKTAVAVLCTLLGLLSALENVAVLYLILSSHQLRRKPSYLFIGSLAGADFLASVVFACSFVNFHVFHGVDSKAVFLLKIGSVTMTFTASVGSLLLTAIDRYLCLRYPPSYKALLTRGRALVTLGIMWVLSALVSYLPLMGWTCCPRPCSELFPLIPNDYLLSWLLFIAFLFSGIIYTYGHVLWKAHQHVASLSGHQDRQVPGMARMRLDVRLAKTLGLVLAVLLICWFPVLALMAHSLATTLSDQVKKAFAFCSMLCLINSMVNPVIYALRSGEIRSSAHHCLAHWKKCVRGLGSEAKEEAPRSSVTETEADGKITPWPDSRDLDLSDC
Each entry below lists one item and its recorded EC50 value.
VALUE_KIND: EC50 (µM)

INSERT INTO measurements (molecule, assay_system, comparative_sign, reported) VALUES
  ('Cl.Fc1cc(Nc2nc(-c3ccncc3)nc3ncccc23)cc2cc[nH]c12 [BC18813]', 'CNR2 (Homo sapiens)', '=', 4.59),
  ('Cl.c1ccc2c(Nc3ccc4[nH]ccc4c3)nc(-c3ccncc3)nc2c1 [BC18630]', 'CNR2 (Homo sapiens)', '>', 10);

====

molecular target: DRD2S (Homo sapiens); assay: Safety47 cAMP DRD2S; settings: Agonist, read-out: RC50 (EC50)
Sequence (P14416 1-414 isoform P14416-2): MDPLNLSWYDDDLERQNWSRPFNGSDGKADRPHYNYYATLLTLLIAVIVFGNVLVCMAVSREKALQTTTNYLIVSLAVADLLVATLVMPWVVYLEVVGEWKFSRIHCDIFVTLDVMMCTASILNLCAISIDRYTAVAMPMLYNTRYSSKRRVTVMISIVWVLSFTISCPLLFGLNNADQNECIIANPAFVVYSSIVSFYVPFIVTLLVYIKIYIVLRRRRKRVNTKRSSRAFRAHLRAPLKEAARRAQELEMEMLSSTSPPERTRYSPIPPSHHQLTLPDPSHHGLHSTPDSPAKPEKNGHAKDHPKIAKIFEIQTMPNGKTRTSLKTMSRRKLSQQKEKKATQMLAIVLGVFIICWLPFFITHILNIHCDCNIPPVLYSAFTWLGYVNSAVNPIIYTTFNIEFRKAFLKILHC
pEC50: −log10 of the molar value.
VALUE_KIND: pEC50

INSERT INTO assay_data (compound, reported) VALUES
  ('Cl.c1ccc2c(Nc3ccc4[nH]ccc4c3)nc(-c3ccncc3)nc2c1 [BC18630]', '< 5.00'),
  ('Cl.Fc1cc(Nc2nc(-c3ccncc3)nc3ncccc23)cc2cc[nH]c12 [BC18813]', '< 5.00');

====

molecular target: OPRM1 (Homo sapiens); experiment: Safety47 cAMP OPRM1; settings: cAMP, Antagonist; read-out: RC50 (IC50)
Sequence (P35372 whole entry, species assumed): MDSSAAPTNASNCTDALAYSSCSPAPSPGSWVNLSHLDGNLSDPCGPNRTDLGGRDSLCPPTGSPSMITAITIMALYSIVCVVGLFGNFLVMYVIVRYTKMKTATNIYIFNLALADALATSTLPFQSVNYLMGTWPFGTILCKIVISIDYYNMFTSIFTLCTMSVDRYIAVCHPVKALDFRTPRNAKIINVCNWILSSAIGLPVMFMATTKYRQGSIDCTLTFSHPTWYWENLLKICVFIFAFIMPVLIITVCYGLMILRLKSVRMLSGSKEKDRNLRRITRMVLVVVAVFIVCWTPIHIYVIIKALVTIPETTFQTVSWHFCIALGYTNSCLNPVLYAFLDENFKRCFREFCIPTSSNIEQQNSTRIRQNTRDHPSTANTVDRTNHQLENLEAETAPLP
VALUE_KIND: IC50 (µM)

INSERT INTO assay_data (compound, comparative_sign, reported) VALUES
  ('Cl.c1ccc2c(Nc3ccc4[nH]ccc4c3)nc(-c3ccncc3)nc2c1 [BC18630]', '>', 10),
  ('Cl.Fc1cc(Nc2nc(-c3ccncc3)nc3ncccc23)cc2cc[nH]c12 [BC18813]', '=', 7.46);

====

Target: AR (Homo sapiens, UniProt P10275)
Sequence (P10275 1-920): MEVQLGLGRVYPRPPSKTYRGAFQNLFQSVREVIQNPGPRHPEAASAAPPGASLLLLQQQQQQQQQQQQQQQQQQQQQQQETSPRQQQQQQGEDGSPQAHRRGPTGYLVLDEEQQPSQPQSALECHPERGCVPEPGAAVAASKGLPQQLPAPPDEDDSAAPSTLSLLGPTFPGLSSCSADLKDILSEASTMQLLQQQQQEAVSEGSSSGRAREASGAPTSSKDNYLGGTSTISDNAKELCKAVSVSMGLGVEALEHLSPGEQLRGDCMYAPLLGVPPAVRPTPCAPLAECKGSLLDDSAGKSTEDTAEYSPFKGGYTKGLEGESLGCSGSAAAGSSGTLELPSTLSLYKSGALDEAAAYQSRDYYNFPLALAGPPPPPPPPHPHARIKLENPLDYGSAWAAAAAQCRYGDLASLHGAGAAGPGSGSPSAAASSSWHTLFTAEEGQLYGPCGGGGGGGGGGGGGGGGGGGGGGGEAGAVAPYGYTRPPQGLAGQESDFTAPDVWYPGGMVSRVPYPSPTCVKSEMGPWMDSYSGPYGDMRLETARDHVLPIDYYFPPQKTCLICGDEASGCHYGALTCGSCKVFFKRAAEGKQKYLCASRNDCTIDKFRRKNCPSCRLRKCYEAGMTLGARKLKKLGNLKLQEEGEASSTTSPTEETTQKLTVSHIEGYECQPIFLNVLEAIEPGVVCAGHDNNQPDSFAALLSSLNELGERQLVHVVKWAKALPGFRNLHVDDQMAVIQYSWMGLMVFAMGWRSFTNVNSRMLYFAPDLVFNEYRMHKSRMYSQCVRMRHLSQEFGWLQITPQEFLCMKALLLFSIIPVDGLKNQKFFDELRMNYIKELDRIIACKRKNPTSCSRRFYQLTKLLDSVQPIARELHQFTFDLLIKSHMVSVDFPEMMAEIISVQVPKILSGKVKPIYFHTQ
Assay: Safety47 NHR Nuclear Translocation AR
Conditions: Antagonist, read-out: RC50 (IC50)
VALUE_KIND: IC50

INSERT INTO results (chemical_smiles, assay_system, reported) VALUES
  ('Cl.c1ccc2c(Nc3ccc4[nH]ccc4c3)nc(-c3ccncc3)nc2c1', 'AR (Homo sapiens, UniProt P10275)', '> 10 µM'),
  ('Cl.Fc1cc(Nc2nc(-c3ccncc3)nc3ncccc23)cc2cc[nH]c12', 'AR (Homo sapiens, UniProt P10275)', '> 10 µM');

FYI, the data here is from paper PMC12136031.
